assay overview: chemical genetic growth profiling, strain panel (AID 1159580);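 further: tested at 20 µM; growth read once vehicle control cultures reached saturation at 30 °C; 1 = growth at the plate median or of vehicle wells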
condition: S. cerevisiae deletion strains, growth OD, locus YKL160W, strain elf1
Screen size: about 5,500 compounds; about 2,000 (36%) were called active. Roughly 18% stayed inconclusive and do not appear here. No stated cut-off is given here; in the data, active means normalized growth mostly below about 0.91 (no sharp cut-off); inconclusive means no clear call, values can overlap the other calls; inactive means mostly above about 0.92. This is one part of the list.
I would appreciate it if you answered using one of these outcomes: 1 = active, 0 = inactive

Example entries and their recorded answers appear below.
OC[C@H]1OC([S-])[C@H](O)[C@@H](O)[C@@H]1O.[Au+] (stereo partly drawn); 0
O=C(Nc1ccccc1)Nc1ccccc1; 0
CN(C)C(=O)Nc1ccc(Cl)c(Cl)c1; 0
C[C@@H]1CC2C3CCC4=CC(=O)C=C[C@]4(C)[C@@]3(F)[C@@H](O)C[C@]2(C)[C@H]1C(=O)CO (stereo partly drawn); 0
C=C1C2=CC(=O)O[C@@H](c3ccoc3)[C@]2(C)CCC1[C@@]1(C)C=CC(=O)C(C)(C)[C@@H]1CC(=O)OC (stereo partly drawn); 0
CCCC(C(=O)OCCN(CC)CC)(c1ccccc1)c1ccccc1; 0

Recorded test call requested for CC(C)CCCC(C)C1CCC2C3CC[C@H]4CCCC[C@]4(C)C3CC[C@]12C (stereo partly drawn)
0

# fetch the recorded call for `S=P(N1CC1)(N1CC1)N1CC1` here
0

Per the assay record, what outcome was assigned to `CCN(CC)CCOC(=O)C(c1ccccc1)c1ccccc1` ?
0

Please let me know the test result on file for `CC1=C2[C@H]3OC(=O)[C@@H](C)[C@@H]3CC[C@@]2(C)C=CC1=O` .
0

Write down the call the test reported for this compound. Item: `COc1ccc(C(=O)CC(=O)c2ccc(C(C)(C)C)cc2)cc1`
0

Could you kindly confirm the outcome this assay logged for CCN(CC)C(C)CN1c2ccccc2Sc2ccccc21 (stereo not drawn) ?
0

Assay outcome for `CN(C)N=Nc1nc[nH]c1C(N)=O` : what was it?
0

GET /call?item= `O=c1[nH]cnc2[nH]ncc12` returns the recorded outcome of this test.
0

State the result this test recorded for `N[C@@H]1[C@@H](O)[C@H](O)[C@@H](CO)O[C@H]1O` .
0

Kindly provide the recorded test outcome for the following compound: `O=c1cc(-c2ccc(O)cc2)oc2cc(O)cc(O)c12`
0

Outcome? `CC12CC3CC(C)(C1)CC(N)(C3)C2`
0

In this assay, the call recorded for CC(CN1c2ccccc2Sc2ccccc21)N(C)C (stereo not drawn) was what?
0

What did the test return for C=C1C2CCC3(C)C(c4ccoc4)OC(=O)CC13OC1CC(OC(C)=O)C(C)(C)C(CC(=O)OC)C12C (stereo not drawn) ?
0

How did this test come out for CC(CN(C)C)CN1c2ccccc2Sc2ccccc21 (stereo not drawn) ?
0

Record request — test call for COC(=O)CCC(C)C1CCC2C3CC[C@@H]4C[C@H](O)CC[C@]4(C)C3C[C@H](O)[C@]12C (stereo partly drawn)
0

GET /call?item= `COc1cc([C@H]2Oc3cc([C@H]4Oc5cc(O)cc(O)c5C(=O)[C@@H]4O)ccc3O[C@@H]2CO)ccc1O` returns the recorded outcome of this test.
0

Hi, do you know how CSc1ccc2c(c1)N(CCC1CCCCN1C)c1ccccc1S2 (stereo not drawn) came out in this test?
0

---

assay overview: chemical genetic growth profiling, strain panel (AID 1159580);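 further: tested at 20 µM; growth read once vehicle control cultures reached saturation at 30 °C; 1 = growth at the plate median or of vehicle wells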
condition: S. cerevisiae deletion strains, growth OD, locus YCL016C, strain dcc1, stronger effect = lower value
Among all 5,500 compounds or so, about 2,000 (36%) were called active. Roughly 18% stayed inconclusive and do not appear here. The list shows a part of the results.
Hi! Could you tag entries with normalized growth below 1 as Met, and those at or above as Not met? Much appreciated.

CSc1ccc2c(c1)N(CCC1CCCCN1C)c1ccccc1S2 (stereo unspecified); Met
C=C1C2=CC(=O)O[C@@H](c3ccoc3)[C@]2(C)CCC1[C@@]1(C)C=CC(=O)C(C)(C)[C@@H]1CC(=O)OC (stereo partly specified); Not met
C=C1C(C2(C)C=CC(=O)C(C)(C)C2CC(=O)OC)CC[C@@]2(C)[C@H](c3ccoc3)OC(=O)C3OC132 (stereo partly specified); Not met
Nc1cc(-c2ccncc2)c[nH]c1=O; Met

Does this compound meet the criterion normalized growth < 1? `O=c1cc(-c2ccccc2)oc2cc(O)c(O)c(O)c12`
Met
